- targetOrTestSystem: Lysosomal acid glucosylceramidase (Homo sapiens)
- Sequence (whole entry): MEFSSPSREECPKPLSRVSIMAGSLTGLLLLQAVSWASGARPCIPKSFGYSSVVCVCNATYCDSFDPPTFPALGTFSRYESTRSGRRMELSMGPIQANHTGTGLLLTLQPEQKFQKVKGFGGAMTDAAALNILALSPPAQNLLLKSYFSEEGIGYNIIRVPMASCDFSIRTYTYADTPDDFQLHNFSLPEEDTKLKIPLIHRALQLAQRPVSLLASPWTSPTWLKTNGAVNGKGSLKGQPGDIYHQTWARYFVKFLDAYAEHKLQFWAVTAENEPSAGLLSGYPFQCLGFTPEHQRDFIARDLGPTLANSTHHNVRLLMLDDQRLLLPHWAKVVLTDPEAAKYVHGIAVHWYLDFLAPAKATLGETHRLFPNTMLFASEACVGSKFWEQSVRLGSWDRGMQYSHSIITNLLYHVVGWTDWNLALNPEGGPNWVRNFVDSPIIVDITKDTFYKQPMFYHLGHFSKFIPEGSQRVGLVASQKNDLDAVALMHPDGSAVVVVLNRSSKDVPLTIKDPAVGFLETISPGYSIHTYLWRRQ
- assayMethodText: Binding affinity to recombinant beta-glucocerebrosidase assessed as enzymatic activity at 100 uM after 60 mins by thermal stabilization assay relative to control
recordedMetric: fold change (FC)
Lab note: jot down the number only; don't add units.

Solved entries (count: 5):
- recordSmiles: "CCCCCCCCCCN[C@H]1[C@H](O)[C@@H](O)[C@H](O)[C@@H](O)[C@@H]1O"
  fold change (FC): 4.89
- recordSmiles: "CCCCCCCCCCCCCCn1cc(CN[C@H]2[C@H](O)[C@@H](O)[C@H](O)[C@@H](O)[C@@H]2O)nn1"
  fold change (FC): 13.2
- recordSmiles: "CCCCCCCCCCCCn1cc(CN[C@H]2[C@H](O)[C@@H](O)[C@H](O)[C@@H](O)[C@@H]2O)nn1"
  fold change (FC): 28.7
- recordSmiles: "CCCCCCCCCn1cc(CCN[C@H]2[C@H](O)[C@@H](O)[C@H](O)[C@@H](O)[C@@H]2O)nn1"
  fold change (FC): 7.6
- recordSmiles: "CCCCCCCCCCCn1cc(CCN[C@H]2[C@H](O)[C@@H](O)[C@H](O)[C@@H](O)[C@@H]2O)nn1"
  fold change (FC): 11.6

In one line, give reported fold change (FC) of the entry `CCCCCCCCCCn1cc(CN[C@H]2[C@H](O)[C@@H](O)[C@H](O)[C@@H](O)[C@@H]2O)nn1` .
20.9

Identify measured fold change (FC) associated with `CCCCCCCCCn1cc(CN[C@H]2[C@H](O)[C@@H](O)[C@H](O)[C@@H](O)[C@@H]2O)nn1`
13

###

- targetOrTestSystem: Lysosomal acid glucosylceramidase (Homo sapiens) (UniProt P04062)
- assayMethodText: Binding affinity to recombinant beta-glucocerebrosidase assessed as enzymatic activity at 100 uM after 40 mins by thermal stabilization assay relative to control
In this section, each of the compounds is paired with its reported fold change (FC).
No unit in the answer, only the number.

// worked examples, fold change (FC) included
- recordSmiles: "CCCCCCCCCCn1cc(CN[C@H]2[C@H](O)[C@@H](O)[C@H](O)[C@@H](O)[C@@H]2O)nn1"
  val: 8.88
- recordSmiles: "CCCCCCCCCCCn1cc(CCN[C@H]2[C@H](O)[C@@H](O)[C@H](O)[C@@H](O)[C@@H]2O)nn1"
  val: 6.7

Identify measured fold change (FC) corresponding to `CCCCCCCCCCCCCCn1cc(CN[C@H]2[C@H](O)[C@@H](O)[C@H](O)[C@@H](O)[C@@H]2O)nn1`
7.48
